So I've got a bunch of compounds here, and I need their log10(EC50) values.
- experimentalTarget: Growth hormone secretagogue receptor type 1 (Homo sapiens, UniProt Q92847)
- Sequence (Q92847 whole entry): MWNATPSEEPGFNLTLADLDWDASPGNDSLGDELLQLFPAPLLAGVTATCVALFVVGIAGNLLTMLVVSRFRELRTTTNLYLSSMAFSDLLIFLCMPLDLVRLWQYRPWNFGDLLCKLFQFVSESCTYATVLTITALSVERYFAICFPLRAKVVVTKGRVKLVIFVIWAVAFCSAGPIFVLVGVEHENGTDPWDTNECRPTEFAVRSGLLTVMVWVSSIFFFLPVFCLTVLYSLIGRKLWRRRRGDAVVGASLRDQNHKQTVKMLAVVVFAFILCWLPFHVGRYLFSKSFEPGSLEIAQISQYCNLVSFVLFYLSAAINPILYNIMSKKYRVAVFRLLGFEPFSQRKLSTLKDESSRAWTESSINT
- method: SUPPLEMENTARY: Agonist activity at GSHR by FLIPR assay. Same assay as CHEMBL941945
Record value = log10 of EC50 given in µM.

What does the record list as log10(EC50) for `COc1ccc(NS(=O)(=O)c2ccc(-c3ccsc3)cc2)cc1N1C[C@@H](C)N[C@@H](C)C1` ? -2.60

What does the record list as log10(EC50) for `COc1ccc(NS(=O)(=O)c2ccc(-c3cccc(F)c3F)cc2)cc1N1C[C@@H](C)N[C@@H](C)C1` ? -1.50

What does the record list as log10(EC50) for `COc1ccc(NS(=O)(=O)c2ccc(-c3ccc(F)cc3)s2)cc1N1C[C@@H](C)N[C@@H](C)C1` ? -1.00

What does the record list as log10(EC50) for `COc1ccc(NS(=O)(=O)c2ccc(-c3c(C)cccc3C)s2)cc1N1C[C@@H](C)N[C@@H](C)C1` ? -1.60

What does the record list as log10(EC50) for `COc1ccc(N2C[C@@H](C)N[C@@H](C)C2)cc1NS(=O)(=O)c1ccc(-c2cnccn2)cc1` ? -1.50

What does the record list as log10(EC50) for `COc1ccc(N2C[C@@H](C)N[C@@H](C)C2)cc1NS(=O)(=O)c1ccc(-c2cccs2)s1` ? -2.40

What does the record list as log10(EC50) for `COc1ccc(N2C[C@@H](C)N[C@@H](C)C2)cc1NS(=O)(=O)c1ccc(-c2ccc(F)cc2F)cc1` ? -1.00

What does the record list as log10(EC50) for `COc1ccc(NS(=O)(=O)c2ccc(-c3cccc(C)n3)cc2)cc1N1C[C@@H](C)N[C@@H](C)C1` ? -1.80
